Exercise: state measured TGI for each of the compounds provided.
- System: KM12 colon
- Experimental protocol: NCI tumour cell line growth inhibition, 48 h

QUERY: // returns reported TGI for input NC(=S)N/N=C\CC(O)(C(F)(F)F)C(F)(F)F
RESULT: > 10 µM

QUERY: Then what about the compound COC(=O)c1ccc(/C=C2\CCc3ccccc3C2=O)cc1 ?
RESULT: > 100 µM

QUERY: Check O=C(O)[C@@H]1CCCC[C@@H]1C(=O)N(C1CCCCC1)C1CCCCC1 too.
RESULT: > 100 µM

QUERY: Another compound to look at: CCCNC(=O)CCC(C)[C@H]1CCC2C3C(C[C@H](OC(C)=O)[C@@]21C)[C@@]1(C)CCC2(C[C@H]1C[C@H]3OC(C)=O)OOC1(CCCCC1)OO2 (some centres undefined)
RESULT: 3.56 µM

QUERY: Param item: CCN(CC)CCOc1ccc(/C=C2\CC3C4CC=C5C[C@@H](OC(C)=O)CC[C@]5(C)C4CC[C@]3(C)C2=O)cc1OC (some centres undefined)
RESULT: 4.18 µM

QUERY: Field entry: Cc1cn([C@H]2[C@@H](CO)C[C@H]2O)c(=O)[nH]c1=O
RESULT: > 100 µM

QUERY: Now the same for O=P(O)(O)CN1CCNCCN(CP(=O)(O)O)CCNCC1
RESULT: > 100 µM

QUERY: CCOc1ccc(-c2oc(/C=N/NS(=O)(=O)c3ccc(C)cc3)c([N+](=O)[O-])c2-c2ccc(OCC)cc2)cc1 ?
RESULT: 25.3 µM

QUERY: And COc1ccc(C(=O)C[C@]2(O)C(=O)Nc3c(Cl)ccc(Cl)c32)cc1 ?
RESULT: > 40.1 µM
